The reported measurements were obtained from ChEMBL document CHEMBL1201862.

Tested on: SF-268
Assay: NCI tumour cell line growth inhibition, 48 h
Active and inactive are the calls of the source. Rule as the data show it: active = GI50 up to about 1.1 µM and inactive = higher.
Possible outcomes: yes (1) = active, no (0) = inactive

{"compound": "CN(NC(=O)/C(=C/c1ccc(O)cc1)NC(=O)c1ccccc1)c1ccnc2cc(Cl)ccc12", "measurementTarget": "SF-268", "class": "no (0)"}
{"compound": "CC(C)=CCN1c2ccccc2[C@@]2(CC=C(C)C)CCN(C)[C@@H]12 [(+)-DEBROMOFLUSTRAMINE B]", "measurementTarget": "SF-268", "class": "no (0)"}
{"compound": "CSc1nc(O)c(C#N)c(-c2ccccc2)n1", "measurementTarget": "SF-268", "class": "no (0)"}
{"compound": "Nc1nc(Cl)cc(NCCCCCCCCCCCCNc2cc(Cl)nc(N)n2)n1", "measurementTarget": "SF-268", "class": "no (0)"}
{"compound": "CN(C)CCCCN1CCc2c(n(C)c3ccccc23)C1=O", "measurementTarget": "SF-268", "class": "no (0)"}
{"compound": "CC(=O)C1C(=O)C(=O)N(c2ccccc2C(C)C)C1=O (stereo not given)", "measurementTarget": "SF-268", "class": "no (0)"}
{"compound": "CCCCc1ccc(N2C(=O)c3cc(C)cnc3S2(=O)=O)cc1", "measurementTarget": "SF-268", "class": "no (0)"}
{"compound": "Cc1cc(N)ccc1/N=N\\c1ccc(S(=O)(=O)CCOS(=O)(=O)O)cc1", "measurementTarget": "SF-268", "class": "no (0)"}
{"compound": "C[C@]12C(=O)C=CCC1=CC[C@@H]1[C@@H]2[C@H]2CC3(O)C(=O)O[C@@]4(C)[C@H]5C[C@@]6(C)[C@@H]7[C@@]2(O)[C@]1(OC[C@H]6C(=O)O5)O[C@]734 (stereo not given in full)", "measurementTarget": "SF-268", "class": "no (0)"}
{"compound": "O=[N+]([O-])c1ccc(N2N=C(c3c(O)ccc4ccccc34)CC2c2ccc(Cl)cc2)c([N+](=O)[O-])c1 (stereo not given)", "measurementTarget": "SF-268", "class": "no (0)"}
{"compound": "O=c1c(Cl)c(Cl)cnn1CCCl", "measurementTarget": "SF-268", "class": "no (0)"}
{"compound": "CC1=C(C(=O)Nc2ccc([N+](=O)[O-])cc2)C(c2ccccc2F)C(C(=O)Nc2ccc([N+](=O)[O-])cc2)=C(C)N1", "measurementTarget": "SF-268", "class": "no (0)"}
{"compound": "CC1=CCP(C(F)(F)F)P(C(F)(F)F)C1 (stereo not given)", "measurementTarget": "SF-268", "class": "no (0)"}
{"compound": "O=C(c1nc2ccccc2nc1O)C(O)c1ccco1 (stereo not given)", "measurementTarget": "SF-268", "class": "no (0)"}
{"compound": "CC1OC(CC(=O)O)CC2=C1C(=O)c1c(O)cccc1C2=O (stereo not given)", "measurementTarget": "SF-268", "class": "yes (1)"}
{"compound": "CC(C)c1ccccc1NC(=O)C(=O)Cc1nc2ccccc2s1", "measurementTarget": "SF-268", "class": "no (0)"}
{"compound": "NC12CC3CC(C1)CC(C(=O)O)(C3)C2", "measurementTarget": "SF-268", "class": "no (0)"}
{"compound": "CCOP(=O)(C/C(=N/NC(C)(C)C)C(=O)Nc1nc2ccc(C)cc2s1)OCC", "measurementTarget": "SF-268", "class": "no (0)"}
{"compound": "Cc1cc(Br)cc(C)c1NC(=O)C(=O)C(C(=O)c1ccc2ccccc2c1)C1OC(=O)c2ccccc21 (stereo not given)", "measurementTarget": "SF-268", "class": "no (0)"}
{"compound": "CCOC(=O)CCCO", "measurementTarget": "SF-268", "class": "no (0)"}
